The reported measurements were obtained from the supplement of paper PMC10567573.

B1: TRIM29 (parent)
chain: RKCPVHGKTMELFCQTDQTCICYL

- Variants of: B1
- PROTOCOL_DESCRIPTION: protein stability index of a GFP-peptide fusion (GPS, HEK-293T) (PSI 1-6); higher = more stable;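 further: lentivirally expressed fusions sorted by FACS into six bins by GFP to DsRed ratio, PSI derived from sequencing read proportions per bin multiplied by bin number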
- EXPERIMENTAL_CONTEXT: c terminus: a fixed tail appended
RECORDED_METRIC: protein stability index

- ORDERED_RESIDUES: "RKCPVHGKTMTLFCQTDQTCICYL [E11T]"
  OBSERVED: 2.66
- ORDERED_RESIDUES: "RKCPVHGKTMELFCQTDQTCCCYL [I21C]"
  OBSERVED: 3.49
- ORDERED_RESIDUES: "RKCPVHGKTMELQCQTDQTCICYL [F13Q]"
  OBSERVED: 3.27
- ORDERED_RESIDUES: "RKCPVHGKTMELFCITDQTCICYL [Q15I]"
  OBSERVED: 1.88
- ORDERED_RESIDUES: "RKCPVHGKTSELFCQTDQTCICYL [M10S]"
  OBSERVED: 2.43
- ORDERED_RESIDUES: "RKCPVHGKTMELFCQTDQTCPCYL [I21P]"
  OBSERVED: 2.44
- ORDERED_RESIDUES: "RKCPGHGKTMELFCQTDQTCICYL [V5G]"
  OBSERVED: 3.21
- ORDERED_RESIDUES: "RKCPVHGKTMELFCQTDQTCICYI [L24I]"
  OBSERVED: 4.21
- ORDERED_RESIDUES: "LKCPVHGKTMELFCQTDQTCICYL [R1L]"
  OBSERVED: 3.04
- ORDERED_RESIDUES: "RKCPVHGKNMELFCQTDQTCICYL [T9N]"
  OBSERVED: 2.79
- ORDERED_RESIDUES: "RKCPVHGATMELFCQTDQTCICYL [K8A]"
  OBSERVED: 2.58
- ORDERED_RESIDUES: "RKCPDHGKTMELFCQTDQTCICYL [V5D]"
  OBSERVED: 3.62
- ORDERED_RESIDUES: "RKCPVHGKTMELFCETDQTCICYL [Q15E]"
  OBSERVED: 1.56
- ORDERED_RESIDUES: "MKCPVHGKTMELFCQTDQTCICYL [R1M]"
  OBSERVED: 1.95
- ORDERED_RESIDUES: "RKCPVHGKTMELECQTDQTCICYL [F13E]"
  OBSERVED: 2.47
- ORDERED_RESIDUES: "RKCPVHGKTMELFCQTDQNCICYL [T19N]"
  OBSERVED: 2.16
- ORDERED_RESIDUES: "RKCPVHGKTMPLFCQTDQTCICYL [E11P]"
  OBSERVED: 2.95
- ORDERED_RESIDUES: "RKCPVHGSTMELFCQTDQTCICYL [K8S]"
  OBSERVED: 1.44
- ORDERED_RESIDUES: "RKCPVHGKTMWLFCQTDQTCICYL [E11W]"
  OBSERVED: 2.41
- ORDERED_RESIDUES: "RKCYVHGKTMELFCQTDQTCICYL [P4Y]"
  OBSERVED: 2.12
- ORDERED_RESIDUES: "RKCPVHGKTMELFCQTDQTCIMYL [C22M]"
  OBSERVED: 2.37
- ORDERED_RESIDUES: "RKCPVHGKTMALFCQTDQTCICYL [E11A]"
  OBSERVED: 1.83
